Values were extracted from patent US11214803B2.

# Yap1 mRNA, % UTC per record follows
Tested on: Yap1 mRNA
Assay: Dose-dependent inhibition of human Yap1 in A-431 cells (Example 7, 10,000 cells per well, RTS36584)
Assay type: cell-based
Details: 62.5 nM, A-431 cells, 10,000 cells per well, free uptake, approximately 48 hours
Method: Modified oligonucleotides described in the studies above were tested at various doses in A-431 cells. […] After approximately 48 hours, Yap1 mRNA levels were measured as previously described using the Human Yap1 primer-probe set RTS36584. Yap1 mRNA levels were normalized to total RNA content, as measured by RIBOGREEN®. […] IC50s were calculated using a linear regression on a log/linear plot of the data in excel.
Strand notation (5' to 3'): a small letter for the sugar, then the base; units joined by * are phosphorothioate-linked, units joined directly phosphodiester-linked; [ ] holds rarer units or linkages, { } end groups; capitals alone tell only the bases. k = constrained ethyl (cEt); [5mC] = 5-methylcytosine; d = 2'-deoxy (DNA)
readout: Yap1 mRNA, % UTC (% UTC)

958819 (kT*kG*k[5mC]*dT*dT*d[5mC]*dA*dA*d[5mC]*dA*dT*dT*dG*kT*kT*k[5mC]; antisense) [compound 958819]
63
958580 (kA*kT*kA*dA*dT*d[5mC]*dT*dT*dA*dA*dT*d[5mC]*dT*kG*kT*kG; antisense) [compound 958580]
59
958565 (kT*kT*kG*dA*dG*d[5mC]*dA*d[5mC]*dT*dG*dA*dA*dA*kG*kT*kA; antisense) [compound 958565]
62
958600 (kG*kT*kA*dG*dA*dT*d[5mC]*dT*dA*dA*dG*dA*dA*kG*k[5mC]*k[5mC]; antisense) [compound 958600]
44
716454 (antisense k[5mC]*kG*kA*dG*dA*dT*dT*dT*dA*dA*dA*dT*dA*kA*kG*kG) [compound 716454]
39
958795 (kT*kA*kT*dT*d[5mC]*d[5mC]*dG*d[5mC]*dA*dT*dT*dG*d[5mC]*k[5mC]*kT*kA; antisense) [compound 958795]
69
958500 (kT*k[5mC]*kT*dA*dT*dA*dT*dT*dA*dG*dA*dG*dT*kA*kT*kG) [compound 958500]
63
958595 (k[5mC]*k[5mC]*kA*d[5mC]*dA*dT*d[5mC]*dA*dA*dG*dG*d[5mC]*dT*kA*kT*kG; antisense) [compound 958595]
57
958725 (kG*kT*k[5mC]*dA*dG*dT*dT*dA*dT*d[5mC]*d[5mC]*dT*dA*kT*k[5mC]*k[5mC]; antisense) [compound 958725]
36
958535 (kG*kG*kG*dT*d[5mC]*dA*dA*dT*dT*dT*dT*d[5mC]*dA*kG*k[5mC]*kA; antisense) [compound 958535]
64
958570 (kT*kG*kT*dA*dA*dT*dT*d[5mC]*dA*dT*dA*dT*dA*k[5mC]*k[5mC]*k[5mC]; antisense) [compound 958570]
60
715487 (kA*kT*kT*dA*d[5mC]*dT*dT*d[5mC]*dA*dT*dA*dG*d[5mC]*kT*kT*kA) [compound 715487]
44
958555 (kG*k[5mC]*kT*dT*dA*dT*dA*dT*dT*dG*dA*dA*dG*kA*kG*kT; antisense) [compound 958555]
73
